molecular target: α4β2* nAChR (Rattus norvegicus, UniProt P09483+P12390); test: radioligand binding assay, α4β2* nAChR
Sequence (P09483 31-630): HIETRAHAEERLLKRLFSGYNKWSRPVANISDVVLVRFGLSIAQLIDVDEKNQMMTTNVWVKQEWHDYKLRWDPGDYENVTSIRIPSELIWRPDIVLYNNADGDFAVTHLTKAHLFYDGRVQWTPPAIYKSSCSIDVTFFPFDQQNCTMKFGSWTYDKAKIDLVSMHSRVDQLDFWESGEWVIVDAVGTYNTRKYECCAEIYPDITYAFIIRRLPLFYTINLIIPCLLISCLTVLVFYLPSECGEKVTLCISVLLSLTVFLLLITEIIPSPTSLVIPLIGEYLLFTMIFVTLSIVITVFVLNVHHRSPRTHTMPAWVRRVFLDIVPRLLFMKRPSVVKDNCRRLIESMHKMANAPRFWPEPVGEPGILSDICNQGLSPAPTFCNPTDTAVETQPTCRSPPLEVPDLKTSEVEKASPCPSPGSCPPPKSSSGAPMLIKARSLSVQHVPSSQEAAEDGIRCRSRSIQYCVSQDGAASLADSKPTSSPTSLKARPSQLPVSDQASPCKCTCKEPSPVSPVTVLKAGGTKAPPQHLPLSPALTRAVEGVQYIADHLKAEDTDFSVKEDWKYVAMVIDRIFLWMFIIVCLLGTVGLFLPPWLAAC
Sequence (P12390 25-500): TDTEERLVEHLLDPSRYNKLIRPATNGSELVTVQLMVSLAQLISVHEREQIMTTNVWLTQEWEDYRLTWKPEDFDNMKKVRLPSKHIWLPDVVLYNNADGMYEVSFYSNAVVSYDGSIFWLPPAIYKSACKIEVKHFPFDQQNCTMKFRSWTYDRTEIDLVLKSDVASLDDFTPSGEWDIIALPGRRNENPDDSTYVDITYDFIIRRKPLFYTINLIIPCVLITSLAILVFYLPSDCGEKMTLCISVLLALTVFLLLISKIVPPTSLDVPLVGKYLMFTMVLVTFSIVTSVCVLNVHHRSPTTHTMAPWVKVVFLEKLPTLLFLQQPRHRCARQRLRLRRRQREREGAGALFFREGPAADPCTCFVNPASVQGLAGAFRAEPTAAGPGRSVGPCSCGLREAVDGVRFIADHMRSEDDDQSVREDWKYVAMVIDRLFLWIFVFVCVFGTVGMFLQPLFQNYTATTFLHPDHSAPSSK
assay readout: Ki (nM)

molecule | assay readout | reported value
CN(C)CCOc1cncc(N2CCCN(C)CC2)c1 [Compound 19a] | Ki | 6.9

The measured values listed here are drawn from paper PMC4527756.
